System: T47D
Assay Protocol: NCI tumour cell line growth inhibition, 48 h
Activity calls are given as the source filed them. No stated cut-off is given here; in the data, active = GI50 up to about 1.1 µM and inactive = higher.
Hi there, use one of these labels in your reply, thanks! active, inactive

>  <Compound>
CCCCCc1cc2cc3c(c(O)c2c(=O)[nH]1)C1(CC3)C(=O)c2c(O)c3c(c(O)c2C1=O)C(=O)C(OC)=CC3=O (centres undefined)

>  <Assigned Class>
active

$$$$
>  <Compound>
COc1cc2c(cc1OCCCCCOc1cc3c(cc1OC)C(=O)N1CCC[C@H]1C(=O)N3)N=C[C@@H]1CCCN1C2=O

>  <Assigned Class>
active

$$$$
>  <Compound>
COC(=O)c1c2c(cc3c1CC1(C3)Cc3cc4c(c(C(C)=O)c3C1)CCC4)C=CC2 (centres undefined)

>  <Assigned Class>
inactive

$$$$

What outcome does the record of this test show for CN(CCCNC(=O)c1cn(C)c2c1ccc1cc(Cl)c(Cl)cc12)CCCNC(=O)c1cn(C)c2c1ccc1cc(Cl)c(Cl)cc12 ? inactive

---

Test system: SN12C
Assay Protocol: NCI tumour cell line growth inhibition, 48 h
Calls of active or inactive are those of the source. Rule as the data show it: active = GI50 up to about 1.1 µM and inactive = higher.
GI50 overview

What value of GI50 has been reported for the following compound? CC(O)CCCCC(O)CCC[C@H](O)[C@H]1CCC([C@H]2CCC([C@@H](O)CCCCCCCCCCCCC3=C[C@H](C)OC3=O)O2)O1 (some centres not stated) 12.2 µM (inactive)

What value of GI50 has been reported for the following compound? CCOc1cc2oc(C)cc(=O)c2c(OC)c1/C=N/c1ccc(Cn2c(C)nc3ccccc32)cc1 > 100 µM (inactive)

What value of GI50 has been reported for the following compound? OCC1C2C=CC(O2)[C@H]1CO (some centres not stated) > 100 µM (inactive)

What value of GI50 has been reported for the following compound? Cn1c2c(c3ccccc31)CC(=O)N1CCCCC1C21OCCO1 (configuration not stated) > 100 µM (inactive)

What value of GI50 has been reported for the following compound? CN(CCc1ccccn1)c1ccc2c(c1)Cc1ccccc1-2 33.8 µM (inactive)

What value of GI50 has been reported for the following compound? Nc1ccn(C2OC(C(O)CO)C(O)C2O)c(=O)n1 (configuration not stated) > 100 µM (inactive)

What value of GI50 has been reported for the following compound? NCCCCNCCCN1CC1 1.19 µM (inactive)

What value of GI50 has been reported for the following compound? C[n+]1c2ccccc2n2c3ccccc3c(NCc3ccco3)c(C#N)c21 1.23 µM (inactive)

What value of GI50 has been reported for the following compound? Cc1nn(-c2ccccc2)c2nc(S)cnc12 > 100 µM (inactive)

What value of GI50 has been reported for the following compound? CC(C)(CO)NC1=C(Cl)C(=O)c2c(O)ccc(O)c2C1=O 1.56 µM (inactive)

What value of GI50 has been reported for the following compound? CN(C)C(=S)OC(Cn1cncn1)c1ccc(Cl)cc1Cl (configuration not stated) > 100 µM (inactive)

What value of GI50 has been reported for the following compound? O=C(Nc1ccc(S(=O)(=O)N[C@@H](C(=O)O)c2ccccc2)cc1)c1ccc(F)cc1 > 100 µM (inactive)

What value of GI50 has been reported for the following compound? CN(C)c1ccc(-c2[nH]c(=O)c3ccccc3[n+]2C)cc1 > 100 µM (inactive)

What value of GI50 has been reported for the following compound? CCCCCC(=O)Nc1[nH]nnc1C(N)=O > 100 µM (inactive)

What value of GI50 has been reported for the following compound? CCOC(=O)c1cccc(NC(=O)CBr)c1 0.458 µM (active)

What value of GI50 has been reported for the following compound? O=C(O)/C=C/c1ccc(Oc2ccccc2C(=O)O)o1 > 10 µM (inactive)

What value of GI50 has been reported for the following compound? CCOC(=O)C(O)Cc1cnc2ccccc2n1 (configuration not stated) > 100 µM (inactive)

What value of GI50 has been reported for the following compound? Cn1ccnc1CCc1ccc(F)cc1F > 100 µM (inactive)

What value of GI50 has been reported for the following compound? COC(=O)c1cccn1C(=O)n1cccc1 > 100 µM (inactive)

---

Test system: 786-0
Assay Protocol: NCI tumour cell line growth inhibition, 48 h
Calls of active or inactive are those of the source. Cut-off read from the data, not from the text of the source: active = GI50 up to about 1.1 µM and inactive = higher.
Hi there, use one of these labels in your reply, thanks! yes = active, no = inactive

>  <Molecule>
COC(=O)C1CC(=O)O[C@H]1c1ccc(OC)c(OC)c1 (stereo not given in full)

>  <Assigned Class>
no

$$$$
>  <Molecule>
COc1ccc(-c2oc3cc(OC)c(OC)c(OC)c3c(=O)c2OC)cc1OC [HEXAMETHOXYFLAVONE]

>  <Assigned Class>
no

$$$$
>  <Molecule>
O=c1[nH]nc(-c2cccc([N+](=O)[O-])c2)[nH]1

>  <Assigned Class>
no

$$$$

What outcome does the record of this test show for COC(=O)C12OCC34C(CC5C(C)C6=CC(=O)OC6=CC5(C)C3C(O)C1O)OC(=O)C(O)C24 (stereo not given) ? yes

What outcome does the record of this test show for Cc1cc(S(=O)(=O)[N-]/C(=N/S(=O)(=O)c2cc(Cl)sc2Cl)[n+]2ccc(N(C)C)cc2)c(S)cc1Cl ? no

---

GI50 overview
Test system: CAKI-1
Assay Protocol: NCI tumour cell line growth inhibition, 48 h
Activity calls are given as the source filed them. Rule as the data show it: active = GI50 up to about 1.1 µM and inactive = higher.

Some solved entries appear below for comparison.
>  <Molecule>
CCOC(OC1=C(C#N)CCC1)C(CC)[Se]c1ccccc1 (stereo not given)

>  <GI50>
41 µM (inactive)

$$$$
>  <Molecule>
CC1(C)/C(=N\NC(N)=O)C2CCC1C2 (stereo not given)

>  <GI50>
> 100 µM (inactive)

$$$$
>  <Molecule>
COc1ccc2cc(-c3nc(N)nc(N4N=C(C)CC4(C)C)n3)c(=N)oc2c1

>  <GI50>
17.5 µM (inactive)

$$$$

Kindly review the next molecule as well.
What value of GI50 has been reported for the following molecule? Nc1nc(Cl)cc(NCC2(O)CC2)n1 > 100 µM (inactive)

---

Test system: SK-OV-3
Assay Protocol: NCI tumour cell line growth inhibition, 48 h
Counter-ions that a name gives are not always drawn. Active and inactive are the calls of the source. Cut-off read from the data, not from the text of the source: active = GI50 up to about 1.1 µM and inactive = higher. Residues, ends and D or L forms follow the SMILES beside them. *: point of attachment. Tfa = O=C(C(F)(F)F)*
Property Name: GI50

Please tell me: GI50 of CCOC(=O)c1cn(C)nc1N/C(C)=C\C(=O)c1ccccc1 , system SK-OV-3? > 100 µM (inactive)

Please tell me: GI50 of Cc1[nH]n(-c2nc3c(c(=O)[nH]2)CCC3)c(=O)c1CCO , system SK-OV-3? > 100 µM (inactive)

Please tell me: GI50 of O=C(O)/C(Cl)=C(/Cl)C(=O)Nc1cccc(Cl)c1 , system SK-OV-3? 15.7 µM (inactive)

Please tell me: GI50 of Cn1c2c(c3ccccc31)CC(=O)N1CCCCC1C21OCCO1 (stereo unspecified) , system SK-OV-3? > 100 µM (inactive)

Please tell me: GI50 of CO[C@H]1C[C@H](n2cc(C)c(=O)[nH]c2=O)O[C@@H]1CO , system SK-OV-3? > 100 µM (inactive)

Please tell me: GI50 of O=C(O)CC(NC(=O)C(F)(F)F)C(=O)NC(Cc1ccc(O)cc1)C(=O)O (stereo not drawn) (Tfa-Asp-Tyr-OH; configuration not given here) , system SK-OV-3? > 50 µM (inactive)

---

System: DMS-114
Assay Protocol: NCI tumour cell line growth inhibition, 48 h
Active and inactive are the calls of the source. Cut-off read from the data, not from the text of the source: active = GI50 up to about 1.1 µM and inactive = higher.
Hi there, use one of these labels in your reply, thanks! 1 for active, -1 for inactive

>  <Compound>
OCC1C2C=CC(O2)[C@H]1CO (stereo partly specified)

>  <Tgt>
DMS-114

>  <Assigned Class>
-1

$$$$
>  <Compound>
CCN(CC)CCOC(=O)Cc1cccc2c(=O)cc(-c3ccccc3)oc12

>  <Tgt>
DMS-114

>  <Assigned Class>
-1

$$$$

What outcome does the record of this test show for Clc1ccc(CCn2cncn2)c(Cl)c1 ? -1

What outcome does the record of this test show for COC(=O)CCC1CCc2c(OC)ccc(OC)c2C1=O (stereo unspecified) ? -1

What outcome does the record of this test show for CCCCCCC1=NOC(C(c2cc[nH]c2)N(C)[C@H](C(=O)OC)C(C)C)C1 (stereo partly specified) ? -1

What outcome does the record of this test show for CC(C)C(=O)N1C(=O)O[C@@H](c2ccccc2)[C@H]1C ? -1

What outcome does the record of this test show for N#CC12Cc3ccc4c(c3-c3cccc(c31)CCN2C(=O)c1ccccc1)OCO4 (stereo unspecified) ? -1

What outcome does the record of this test show for O=C1CSc2cc([N+](=O)[O-])ccc2N1 ? -1

---

Tested on: NCI-H226
Assay Protocol: NCI tumour cell line growth inhibition, 48 h
Calls of active or inactive are those of the source. Rule as the data show it: active = GI50 up to about 1.1 µM and inactive = higher.
Property Name: GI50

>  <Compound>
O=C1/C(=C/c2ccc([N+](=O)[O-])cc2)Oc2cc(O)ccc21

>  <GI50>
13.2 µM (inactive)

$$$$
>  <Compound>
N#CC(C#N)C1CN2CCC1CC2 (configuration not stated)

>  <GI50>
> 100 µM (inactive)

$$$$

Please tell me: GI50 of CCN(CC)CCOC(c1cc(OC)ccc1OC)c1ccc2n1-c1ccccc1OC2 (configuration not stated) , system NCI-H226? 3.98 µM (inactive)

Please tell me: GI50 of CCOC(=O)C1(C)CCCc2sc(N)c(C#N)c21 (configuration not stated) , system NCI-H226? > 100 µM (inactive)

Please tell me: GI50 of N#CC1C(=O)SC2c3ccccc3C(=O)c3ccccc3C12 (configuration not stated) , system NCI-H226? > 10 µM (inactive)
